species: Rattus norvegicus; assay: Open TG-GATES - Regimen: Single; type: toxicity, organism-based, Sprague-Dawley; set-up: regimen Single, gender Male, age 6 weeks; settings: in vivo, po, 100 mg/kg, 9 h, tissue Plasma, route gavage, dose level Low
Below, each entry is listed alongside its reported GLC.
Reply with just the number (in mg/dL).

Example cases with answers are listed next.
>>> numericvalue("O=C(O)c1cc(/N=N/c2ccc(S(=O)(=O)Nc3ccccn3)cc2)ccc1O")
194.2
>>> numericvalue("C[C@H](CS)C(=O)N1CCC[C@H]1C(=O)O")
202.4
>>> numericvalue("Clc1ccccc1CN1CCc2sccc2C1")
199.8
>>> numericvalue("O=C(O)c1cn(C2CC2)c2cc(N3CCNCC3)c(F)cc2c1=O")
190

--- query ---
GET /value?item= CCc1cc(C(N)=S)ccn1 [ETHIONAMIDE] &field=GLC returns 205.4

###

organism: Rattus norvegicus; test: Open TG-GATES - Regimen: Daily Repeat; assay type: toxicity, organism-based, Sprague-Dawley; set-up: regimen Daily Repeat, gender Male, age 6 weeks; conditions: in vivo, po, 0 mg/kg, […], tissue Blood, route gavage, dose level Control, time 14 day
Label Fulfilled when Mono is at or above 3%; anything below gets Not fulfilled.

>>> classname("O=C(O)c1cc(/N=N/c2ccc(S(=O)(=O)Nc3ccccn3)cc2)ccc1O [SULFASALAZINE]")
"Not fulfilled"
>>> classname("NC(=O)N/N=C/c1ccc([N+](=O)[O-])o1 [NITROFURAZONE]")
"Not fulfilled"
>>> classname("CCCC(CCC)C(=O)O [VALPROIC ACID]")
"Not fulfilled"
>>> classname("C[C@H](CS)C(=O)N1CCC[C@H]1C(=O)O [CAPTOPRIL]")
"Fulfilled"
>>> classname("Clc1ccccc1CN1CCc2sccc2C1 [TICLOPIDINE]")
"Not fulfilled"

Req: Test whether the compound CO[C@H]1/C=C/O[C@@]2(C)Oc3c(C)c(O)c4c(O)c(c(/C=N/N5CCN(C)CC5)c(O)c4c3C2=O)NC(=O)/C(C)=C\C=C\[C@H](C)[C@H](O)[C@@H](C)[C@@H](O)[C@@H](C)[C@H](OC(C)=O)[C@@H]1C [RIFAMPIN] records Mono of 3% or higher.
Resp: Fulfilled

Req: Please tell me: is the compound O=C(O)c1cn(C2CC2)c2cc(N3CCNCC3)c(F)cc2c1=O [CIPROFLOXACIN] at or over 3% in terms of Mono?
Resp: Fulfilled

Req: Check if Mono >= 3% (inclusive). Item: CN(C)CCC=C1c2ccccc2CCc2ccccc21 [AMITRIPTYLINE]
Resp: Not fulfilled

Req: Hi, just wondering whether CCc1cc(C(N)=S)ccn1 [ETHIONAMIDE] shows Mono of 3% or higher.
Resp: Fulfilled

###

Na values for the molecules below.
organism: Rattus norvegicus; assay: Open TG-GATES - Regimen: Single; format: toxicity, organism-based, Sprague-Dawley; design: regimen Single, gender Male, age 6 weeks; details: in vivo, po, 100 mg/kg, 9 h, tissue Plasma, route gavage, dose level Low
Output spec: scalar in meq/L, unitless text.

>>> numericvalue("Clc1ccccc1CN1CCc2sccc2C1")
142.6
>>> numericvalue("O=C(O)c1cc(/N=N/c2ccc(S(=O)(=O)Nc3ccccn3)cc2)ccc1O")
139.8
>>> numericvalue("O=C(O)c1cn(C2CC2)c2cc(N3CCNCC3)c(F)cc2c1=O")
139.6
>>> numericvalue("CCc1cc(C(N)=S)ccn1 [ETHIONAMIDE]")
142

Just so you know, measured Na for `C[C@H](CS)C(=O)N1CCC[C@H]1C(=O)O` came out at 138.6

###

This listing pairs compounds with measured Neu.
species on record: Rattus norvegicus; experiment: Open TG-GATES - Regimen: Single; type: toxicity, organism-based, Sprague-Dawley; set-up: regimen Single, gender Male, age 6 weeks; conditions: in vivo, po, 100 mg/kg, 6 h, tissue Blood, route gavage, dose level Low
Answer with the figure and its unit, nothing else.

>>> result("C[C@H](CS)C(=O)N1CCC[C@H]1C(=O)O")
"17%"
>>> result("O=C(O)c1cc(/N=N/c2ccc(S(=O)(=O)Nc3ccccn3)cc2)ccc1O")
"21.2%"
>>> result("Clc1ccccc1CN1CCc2sccc2C1")
"19.2%"

Consider the record given below.
Entry CCc1cc(C(N)=S)ccn1 [ETHIONAMIDE] — recorded Neu = 14.2%

###

species on record: Rattus norvegicus; test: Open TG-GATES - Regimen: Single; assay type: toxicity, organism-based, Sprague-Dawley; parameters: regimen Single, gender Male, age 6 weeks; details: in vivo, po, 300 mg/kg, 6 h, tissue Blood, route gavage, dose level Middle
readoutType: WBC (x10_2/uL)
Reply numerically in x10_2/uL, unit not repeated.

Please review the following examples before continuing.
>>> numericvalue("C[C@H](CS)C(=O)N1CCC[C@H]1C(=O)O [CAPTOPRIL]")
113.8
>>> numericvalue("CCc1cc(C(N)=S)ccn1 [ETHIONAMIDE]")
112.6
>>> numericvalue("Clc1ccccc1CN1CCc2sccc2C1 [TICLOPIDINE]")
76.9
>>> numericvalue("O=C(O)c1cn(C2CC2)c2cc(N3CCNCC3)c(F)cc2c1=O [CIPROFLOXACIN]")
103.6

For O=C(O)c1cc(/N=N/c2ccc(S(=O)(=O)Nc3ccccn3)cc2)ccc1O [SULFASALAZINE] the compound record lists WBC as 81.1

###

species: Rattus norvegicus; test: Open TG-GATES - Regimen: Single; format: toxicity, organism-based, Sprague-Dawley; set-up: regimen Single, gender Male, age 6 weeks; details: in vivo, po, 1000 mg/kg, 3 h, tissue Liver, route gavage, dose level High
Each entry below carries its reported LIVER.
Please respond with the number in g and leave the unit unwritten.

Example entries begin here.
>>> numericvalue("O=C(O)c1cn(C2CC2)c2cc(N3CCNCC3)c(F)cc2c1=O")
8.6
>>> numericvalue("CCc1cc(C(N)=S)ccn1 [ETHIONAMIDE]")
11.1

Please fill in: LIVER reported for `Clc1ccccc1CN1CCc2sccc2C1` = 9

LIVER for `O=C(O)c1cc(/N=N/c2ccc(S(=O)(=O)Nc3ccccn3)cc2)ccc1O` is 9.7

###

organism: Rattus norvegicus; experiment: Open TG-GATES - Regimen: Single; type: toxicity, organism-based, Sprague-Dawley; design: regimen Single, gender Male, age 6 weeks; conditions: in vivo, po, 0 mg/kg, 3 h, tissue Plasma, route gavage, dose level Control
Na overview
Provide the reading as a plain figure in meq/L.

Would you please look over these solved cases?
>>> numericvalue("C[C@H](CS)C(=O)N1CCC[C@H]1C(=O)O")
137.6
>>> numericvalue("NC(=O)N/N=C/c1ccc([N+](=O)[O-])o1")
141
>>> numericvalue("CN(C)CCC=C1c2ccccc2CCc2ccccc21")
143

For record `O=C(O)c1cc(/N=N/c2ccc(S(=O)(=O)Nc3ccccn3)cc2)ccc1O` the listed Na is 140.2

In plain terms, NC(=O)N1c2ccccc2C=Cc2ccccc21 [CARBAMAZEPINE] has a documented Na of 141.2

Recorded result, CCc1cc(C(N)=S)ccn1 [ETHIONAMIDE] , Na: 141

Reported Na for `Clc1ccccc1CN1CCc2sccc2C1` was 141.2

// sample `O=C(O)c1cn(C2CC2)c2cc(N3CCNCC3)c(F)cc2c1=O` , its Na was 138.2

Measured Na, CSc1ccc2c(c1)N(CCC1CCCCN1C)c1ccccc1S2 (configuration not stated) : 137.4

// Na lookup, compound = `COc1ccc(Cc2nccc3cc(OC)c(OC)cc23)cc1OC` , result: 141.6

Entry `Cn1c(=O)c2[nH]cnc2n(C)c1=O.O` , Na reported as 142.6

Query `CC(=O)Oc1ccccc1C(=O)O` yields Na of 142.4

###

species: Rattus norvegicus; test: Open TG-GATES - Regimen: Single; type: toxicity, organism-based, Sprague-Dawley; parameters: regimen Single, gender Male, age 6 weeks; details: in vivo, po, 0 mg/kg, 9 h, tissue Blood, route gavage, dose level Control
The following molecules are listed with their measured Ht values.
Kindly provide the numeric value in % only, without the unit symbol.

>>> numericvalue("CN(C)CCC=C1c2ccccc2CCc2ccccc21 [AMITRIPTYLINE]")
39.1
>>> numericvalue("CCc1cc(C(N)=S)ccn1 [ETHIONAMIDE]")
41
>>> numericvalue("CC(=O)Oc1ccccc1C(=O)O [ASPIRIN]")
38.7
>>> numericvalue("C[C@H](CS)C(=O)N1CCC[C@H]1C(=O)O [CAPTOPRIL]")
39.1
>>> numericvalue("Cn1c(=O)c2[nH]cnc2n(C)c1=O.O [THEOPHYLLINE]")
39.9

# molecule CSc1ccc2c(c1)N(CCC1CCCCN1C)c1ccccc1S2 (configuration not stated) [THIORIDAZINE] ; its Ht = 40.6

The value of Ht measured for the molecule O=C(O)c1cn(C2CC2)c2cc(N3CCNCC3)c(F)cc2c1=O [CIPROFLOXACIN] turned out to be 37.5
